In this section, each of the compounds is paired with its reported IC50.
Molecular target: GST-tagged KRAS-G12D (2-169) (Homo sapiens, UniProt P01116, G12D)
Sequence (P01116 2-169 isoform P01116-2 G12D): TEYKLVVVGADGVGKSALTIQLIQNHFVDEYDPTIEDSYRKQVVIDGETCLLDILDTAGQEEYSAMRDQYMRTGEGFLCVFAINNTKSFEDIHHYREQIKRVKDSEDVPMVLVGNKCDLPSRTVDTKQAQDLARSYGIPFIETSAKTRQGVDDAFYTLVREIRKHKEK
Experiment: Nucleotide exchange assay (NEA), SOS-mediated, HTRF, KRAS G12D
Type: biochemical
Settings: Table 4; IC50 extracted at 30 min; 20 nM SOScat; read-out: NEA G12D IC50
Source text: This activity is tightly regulated by GTPase activating proteins (GAPs) and guanine nucleotide exchange factors (GEFs). […] Homogenous time resolved fluorescence (HTRF) was used to detect SOS-mediated binding of a fluorescent GTP analog, GTP-DY-647P1 (Jena Biosciences NU-820-647P1) to GST-tagged KRAS-G12D (2-169) or to GST-tagged KRAS-G12V (2-169, Reaction Biology, MSC-11-540). […]

compound	measurement_target	IC50
C[C@H](c1cccnc1N)N(c1nc(OC[C@@]23CCCN2C[C@H](F)C3)nc(N2CC3(C2)SCc2sc(N)c(C#N)c23)n1)C1CC1 [Compound 264]	GST-tagged KRAS-G12D (2-169) (Homo sapiens, UniProt P01116, G12D)	< 10 nM

Q: Requested field: IC50. Item: CC(c1cccnc1N)N(C)c1nc(OC[C@@H]2CCC(=O)N2)nc(N2CC3(CCc4sc(N)c(C#N)c43)C2)n1 (stereo partly shown) [Compound 112]
Ans: 1000 to 20000 nM

Q: Requested field: IC50. Item: N#Cc1c(N)sc2c1C1(CN(c3nc(OC[C@@]45CCCN4C[C@H](F)C5)nc(N4[C@@H]5CC[C@H]4C[C@H](O)C5)n3)C1)SC2 [Compound 275]
Ans: 100 to 1000 nM

Q: Requested field: IC50. Item: CCN(c1nc(OC[C@@]23CCCN2C[C@H](F)C3)nc(N2CC3(C2)c2c(sc(N)c2C#N)CN3CC#N)n1)[C@H](C)c1cccnc1N [Compound 228]
Ans: 1000 to 20000 nM

Q: Requested field: IC50. Item: CCN(c1nc(OC[C@@]23CCCN2C[C@H](F)C3)nc(N2CC3(C2)SCc2sc(N)c(C#N)c23)n1)C1(C(N)=O)CC1 [Compound 234]
Ans: 100 to 1000 nM

Q: Requested field: IC50. Item: N#Cc1c(N)sc2c1C1(CN(c3nc(OC[C@@]45CCCN4C[C@H](F)C5)nc(N4C5CNCC4CC(=O)C5)n3)C1)SC2 [Compound 276]
Ans: 100 to 1000 nM

###

Target: GST-tagged KRAS-G12D (2-169) (Homo sapiens, UniProt P01116, G12D)
Test: Nucleotide exchange assay (NEA), SOS-mediated, HTRF, KRAS G12D
Assay type: biochemical
Conditions: Table 4; IC50 extracted at 30 min; 20 nM SOScat; read-out: NEA G12D IC50
In this section, each of the molecules is paired with its reported IC50.

Q: Requested field: IC50. Item: C[C@@]1(O)C[C@@H](O)CN(c2nc(OC[C@@]34CCCN3C[C@H](F)C4)nc(N3CC4(CCc5sc(N)c(C#N)c54)C3)n2)C1
Ans: < 10 nM

Q: Requested field: IC50. Item: CCN(c1nc(OC[C@@]23CCCN2C[C@H](F)C3)nc(N2CC3(C2)SCc2sc(N)c(C#N)c23)n1)C1(C#N)CC1
Ans: < 10 nM

Q: Requested field: IC50. Item: CC(=O)N1CCC(N(C)c2nc(OC[C@@]34CCCN3C[C@H](F)C4)nc(N3CC4(C3)SCc3sc(N)c(C#N)c34)n2)C1C (stereo partly shown)
Ans: 100 to 1000 nM

Q: Requested field: IC50. Item: N#Cc1c(N)sc2c1C1(CC2)CN(c2nc(OC[C@@]34CCCN3C[C@H](F)C4)nc(N3CCCCC3C#N)n2)C1 (stereo partly shown)
Ans: 10 to 100 nM

Q: Requested field: IC50. Item: CC(C#N)COc1nc(OC[C@@]23CCCN2C[C@H](F)C3)nc(N2CC3(CCc4sc(N)c(C#N)c43)C2)n1 (stereo partly shown)
Ans: 100 to 1000 nM

Q: Requested field: IC50. Item: CC(c1cccnc1N)N(C)c1nc(OC[C@@]23CCCN2C[C@H](F)C3)nc(N2CC3(C2)SCc2sc(N)c(C#N)c23)n1 (stereo partly shown) [Compound 115]
Ans: < 10 nM

Q: Requested field: IC50. Item: CC(c1cccnc1N)N(C)c1nc(OCCc2nccn2C)nc(N2CC3(CCc4sc(N)c(C#N)c43)C2)n1 (stereo not shown)
Ans: 100 to 1000 nM

Q: Requested field: IC50. Item: CC(c1ccc[n+]([O-])c1)N(C)c1nc(OC[C@@]23CCCN2C[C@H](F)C3)nc(N2CC3(C2)SCc2sc(N)c(C#N)c23)n1 (stereo partly shown)
Ans: 10 to 100 nM

Q: Requested field: IC50. Item: N#Cc1c(N)sc2c1C1(CC2)CN(c2nc(OC[C@@]34CCCN3C[C@H](F)C4)nc(N3CCCC(O)(CO)C3)n2)C1 (stereo partly shown)
Ans: 100 to 1000 nM

Q: Requested field: IC50. Item: N#CCC1C=C(F)CN(c2nc(OCC3(CN4CCOCC4)CC3)nc(N3CC4(CCc5sc(N)c(C#N)c54)C3)n2)C1 (stereo not shown)
Ans: 100 to 1000 nM
